Data provenance: patent US20180362643A1

Reported Optical Density values for a set of binders
Measurement target: T1, carboxy terminal PACAP38 peptide (amino acids 28-38) (human, ends and bridges not checked)
T1 construct: also called C-terminal Peptide; C-terminal PACAP peptide
T1 peptide: GKRYKQRVKNK
Measurement description: ELISA screen of B-cell culture supernatant; C-terminal peptide at 500 ng/mL
Ends that are not written are not given here.
Endpoint: Optical Density (OD)

>>> reported("mAb2 (antibody, V domains shown, Rabbit monoclonal antibody (SLAM), recombinant; also called monoclonal anti-PACAP antibody 2; 2 (c81)) VH: QSLEESGGGLVQPEGSLTLTCTASGFSFNSSSYMCWVRQAPGKGLEWIGCIFTGSSGNTYYATWAQGRFTISKTSTTVTLEMTSLTAADTATYFCARDRAYFLVGYFYATYYFDLWGPGTLVTVSS VL: DVVMTQTPSPVSAQVGGTVTINCQASESIDSDLSWYQQKPGQPPKLLIYRTFTLESGVPSRFKGSGSGTDYTLTISDLECADAAIYYCQCTDGSSISGSYGWDAFGGGTEVVVKG")
3.74
>>> reported("mAb3 (antibody, V domains shown, Rabbit monoclonal antibody (SLAM), recombinant; also called monoclonal anti-PACAP antibody 3; 3 (c89)) VH: QSLEESGGGLVQPGASLTLTCTASGFSFSSNYYMCWVRQAPGKGLEWIACIFTGSSGSTYYASWAKGRFTISKTSSTTVTLHVTSLTAADTATYFCARDRALSVVGYFYAAYYFDFWGPGTLVTVSS VL: DVVMTQTPSPVSAAVGGTVTINCRASEDIESFLAWYQQKPGQPPKLLMSRTSTLESGVPSRFKGSGSGTEFTLTISDLECADAATYYCQCTDGSSSSSSYGWDAFGGGTEVVVKG")
3.59
>>> reported("mAb4 (antibody, V domains shown, Rabbit monoclonal antibody (SLAM), recombinant; also called monoclonal anti-PACAP antibody 4; 4 (c47)) VH: QSVEESGGRLVTPGTPLTLTCTASGIDLSSYAMIWVRQAPGEGLEYIGFIDAGDGNTYYASWAKGRFTISKTSTTVDLKITSPTTEDTATYFCARGDPGWSNGFALWGQGTLVTVSS VL: DIVMTQTPASVSGAVGGTVTIKCQASQSIRNELSWYQQKPGQPPKLLIYKASTLASGVPSRFSGSGFGTEFTLTISGVQCDDAATYYCQNNYGTRRNNYVFPFGGGTEVVVKG")
0.05
